Please go through the items and note down their z-score.
- Assay Notes: basal RPMI8226 viability, no added stimulus, profiling panel, cell-based, calcein-AM fluorescence, 48 h, PK04 Diversity Set (AID 1166);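 further: cells grown under basal conditions without added stimulus; test concentration not given here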
- Cond: RPMI8226 myeloma viability, higher = more signal

Input line: I have this molecule here, CCOC(=O)C1=CCC(c2ccccc2)N(S(=O)(=O)CC[Si](C)(C)C)C1 (configuration not stated) , and I need its recorded z-score.
Output line: 0.582

Input line: I have this molecule here, Cc1ccc(S[C@]2(C(=O)NCCN3CCOCC3)CC(=O)N(Cc3ccccc3)[C@@H]2c2ccc(CO)cc2I)cc1 , and I need its recorded z-score.
Output line: -2.5

Input line: I have this molecule here, O=C1O[C@H](c2ccccc2)[C@H](c2ccccc2)N2[C@H]1[C@@H](C(=O)Nc1nc3ccccc3s1)[C@]1(C(=O)Nc3ccc(C#CCCO)cc31)[C@H]2c1ccc(OCCO)cc1 , and I need its recorded z-score.
Output line: 0.743

Input line: I have this molecule here, COC(=O)[C@@]1(Cc2ccc(OC)cc2)[C@H]2c3cc(C(=O)N4CCCC4)n(Cc4ccc(OC)c(OC)c4)c3C[C@H]2CN1C(=O)c1ccccc1 , and I need its recorded z-score.
Output line: -0.808

Input line: I have this molecule here, COc1cc2c(cc1OC)CN(C(=O)[C@@H]1[C@H]3C(=O)O[C@H](c4ccccc4)[C@H](c4ccccc4)N3[C@H](c3ccc(O)cc3)[C@@]13C(=O)Nc1ccc(C#CC4(O)CCCCCC4)cc13)CC2 , and I need its recorded z-score.
Output line: -0.0905

Input line: I have this molecule here, COC(=O)[C@@]1(Cc2ccc(OC)cc2)[C@H]2c3cc(C(=O)N(C)C)n(CCN4CNCC4=O)c3C[C@H]2CN1C(=O)c1ccccc1 , and I need its recorded z-score.
Output line: 0.177

Input line: I have this molecule here, O=C(NCc1ccccc1)[C@@]1(Cc2ccccc2)N=C(c2ccc(OCCCO)cc2)O[C@H]1c1ccccc1 , and I need its recorded z-score.
Output line: -3.32

----------
- Assay Notes: small-molecule microarray binders of probe aWnt5a, primary screen, biochemical, biotinylated probe, 635/667 nm fluorescence (AID 1113);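 further: score merges 667 nm fluorescence intensity with signal-to-noise per printed feature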
- Cond: higher = more signal
Please go through the items and note down their composite z-score.
Number, no unit, nothing else.

Input line: I have this compound here, Cc1ccc(S[C@]2(C(=O)NCCN3CCOCC3)CC(=O)N(Cc3ccccc3Cl)[C@@H]2c2ccc(CO)cc2)cc1 , and I need its recorded composite z-score.
Output line: -0.12

Input line: I have this compound here, CCOC1=C2C(CN(S(=O)(=O)c3ccc(C)cc3)C2c2ccc(C)cc2)C2C(=O)N(c3ccccc3)C(=O)C2C1 (stereo unspecified) , and I need its recorded composite z-score.
Output line: -0.106

Input line: I have this compound here, COc1ccc([C@H]2OC[C@@H]3CC4(CC=CC4)C(=O)N32)cc1 , and I need its recorded composite z-score.
Output line: -0.124

Input line: I have this compound here, O=C1OCC=C[C@H]2OC34C=CCN(CCN5CCOCC5)C(=O)[C@H]3N(CCCO)C(=O)[C@@H]4[C@@H]12 (stereo partly specified) , and I need its recorded composite z-score.
Output line: -0.18

Input line: I have this compound here, C=CCNC(=O)[C@@H]1[C@H]2C(=O)O[C@H](c3ccccc3)[C@H](c3ccccc3)N2[C@H](c2ccc(OCCO)cc2)[C@@]12C(=O)Nc1ccc(C#CCCO)cc12 , and I need its recorded composite z-score.
Output line: 0.452

Input line: I have this compound here, O=C1NC(=O)C2C1C=CC(C(O)c1ccccc1)N2Nc1ccc(Cl)cc1Cl (stereo unspecified) , and I need its recorded composite z-score.
Output line: 0.17

Input line: I have this compound here, COCCCNC(=O)[C@@]1(Cc2ccccc2N=[N+]=[N-])N=C(c2ccc(OCCCO)cc2)O[C@H]1c1ccccc1N=[N+]=[N-] , and I need its recorded composite z-score.
Output line: 0.168

Input line: I have this compound here, CN1C(=O)C2C=CC(C(O)Cc3ccccc3)N(Nc3ccccc3)C2C1=O (stereo unspecified) , and I need its recorded composite z-score.
Output line: -0.0738

Input line: I have this compound here, CN1C2C=C(CCCO)C(C3C(=O)N(C(N)=O)C(=O)C32)C1c1ccc(CN2CCCC2)cc1 (stereo unspecified) , and I need its recorded composite z-score.
Output line: -0.243

Input line: I have this compound here, C=C(CCCC)C(=O)CC[C@H](OC(C)=O)c1cccc(OCCO)c1 , and I need its recorded composite z-score.
Output line: -0.156

Input line: I have this compound here, C#CCN(Cc1ccccc1Br)C(/C=C/c1ccccc1)CO (stereo unspecified) , and I need its recorded composite z-score.
Output line: -0.16

Input line: I have this compound here, COCCOC(=O)N1C(=O)[C@@]2(c3cc(C#CC4(O)CCCCCC4)ccc31)[C@H](c1ccc(O)cc1)N1[C@H](c3ccccc3)[C@H](c3ccccc3)OC(=O)[C@H]1[C@@H]2C(=O)Nc1nc2ccccc2s1 , and I need its recorded composite z-score.
Output line: 0.0932

Input line: I have this compound here, O=C1OCCC/C=C\[C@H]2OC34C=CCN(Cc5ccccc5)C(=O)[C@H]3N(CCCCCCO)C(=O)[C@@H]4C12 (stereo partly specified) , and I need its recorded composite z-score.
Output line: -0.206

Input line: I have this compound here, COc1ccc(CCNC(=O)[C@@]2(Sc3ccc(C)cc3)CC(=O)N(C3CCCCC3)[C@@H]2c2ccc(CO)cc2I)cc1 , and I need its recorded composite z-score.
Output line: -0.0903

Input line: I have this compound here, COc1ccc(CCNC(=O)[C@@]2(C)c3ccccc3C(=O)N(Cc3cc(F)cc(C(F)(F)F)c3)[C@H]2c2ccc(CO)cc2)cc1 , and I need its recorded composite z-score.
Output line: -0.0944

Input line: I have this compound here, O=C(NCc1ccccc1)[C@@]1(Cc2ccccc2)N=C(c2ccc(OCCCO)cc2)O[C@H]1c1ccccc1 , and I need its recorded composite z-score.
Output line: 0.055

----------
- Assayed Target: Dihydroorotate dehydrogenase (quinone), mitochondrial (Plasmodium falciparum (isolate 3D7))
- Assay Notes: PfDHODH enzyme inhibitors, primary screen, biochemical, C-terminal His tag, absorbance 600 nm (AID 1175);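 further: recombinant parasite enzyme with a five histidine tag at its C terminus; test concentration not given here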
- Cond: DCIP absorbance 600 nm, called active from +8 up or from −8 down
Active and inactive are the calls of the source.
Respond only with the outcome that fits, drawn from active, inactive

Input line: I would be grateful if you could indicate the recorded call for COCCOC(=O)N1C(=O)[C@@]2(c3cc(C#CCCO)ccc31)[C@H](C(=O)N1CCc3cc(OC)c(OC)cc3C1)[C@H]1C(=O)O[C@H](c3ccccc3)[C@H](c3ccccc3)N1[C@@H]2c1ccc(O)cc1 .
Output line: inactive

Input line: I would be grateful if you could indicate the recorded call for COc1cc2c(cc1OC)CN(C(=O)[C@H]1[C@@H]3C(=O)O[C@@H](c4ccccc4)[C@@H](c4ccccc4)N3[C@@H](c3ccc(O)cc3)[C@]13C(=O)Nc1ccc(C#CC4=CCCCC4)cc13)CC2 .
Output line: inactive

Input line: I would be grateful if you could indicate the recorded call for COC(=O)c1c(CC[C@@H](CO)NC(=O)N[C@H](Cn2cc(Cc3ccccc3)nn2)C(C)C)oc(C(C)=O)c1C(=O)OC .
Output line: inactive

Input line: I would be grateful if you could indicate the recorded call for O=C1O[C@H](c2ccccc2)[C@H](c2ccccc2)N2[C@H]1[C@@H](C(=O)O)[C@]1(C(=O)Nc3ccc(C#CCCO)cc31)[C@H]2c1ccc(O)cc1 .
Output line: inactive

Input line: I would be grateful if you could indicate the recorded call for O=C1O[C@H](c2ccccc2)[C@H](c2ccccc2)N2[C@H]1[C@@H](C(=O)O)[C@]1(C(=O)Nc3ccc(C#CC4=CCCCC4)cc31)[C@H]2c1ccccc1OCCO .
Output line: inactive

Input line: I would be grateful if you could indicate the recorded call for C#CCN(Cc1ccccc1Br)C(/C=C/c1ccccc1)CO (stereo not drawn) .
Output line: inactive

Input line: I would be grateful if you could indicate the recorded call for C[C@@]1([C@@H](NC(=O)c2ccccc2)c2ccc(-c3ccccc3)cc2)C[C@H]1C1CCCCC1 .
Output line: inactive

Input line: I would be grateful if you could indicate the recorded call for [N-]=[N+]=NCc1ccccc1C[C@@]1(C(=O)NCC(O)CO)N=C(c2ccc(OCCCO)cc2)O[C@@H]1c1ccccc1N=[N+]=[N-] (stereo partly drawn) .
Output line: inactive

Input line: I would be grateful if you could indicate the recorded call for CN1C(=O)C2C=CC(C(O)c3ccccc3)N(Nc3ccccc3)C2C1=O (stereo not drawn) .
Output line: inactive

Input line: I would be grateful if you could indicate the recorded call for COc1ccc(C#Cc2ccc3c(c2)[C@]2(C(=O)N3)[C@H](c3ccccc3OCCO)N3[C@H](c4ccccc4)[C@H](c4ccccc4)OC(=O)[C@H]3[C@@H]2C(=O)O)cc1 .
Output line: active

Input line: I would be grateful if you could indicate the recorded call for CN1C(=O)C2C=CC(C(O)c3ccc(I)cc3)N(N3CCCCC3)C2C1=O (stereo not drawn) .
Output line: inactive

Input line: I would be grateful if you could indicate the recorded call for C=CCOC(=O)[C@@H]1[C@H]2C(=O)O[C@H](c3ccccc3)[C@H](c3ccccc3)N2[C@H](c2ccc(OCCOC(=O)[C@@H]3C[C@@H]4C(=O)N5CCC[C@H]5C(=O)N4[C@@H]3c3ccc(O)cc3)cc2)[C@@]12C(=O)Nc1ccc(I)cc12 .
Output line: inactive

Input line: I would be grateful if you could indicate the recorded call for Cc1ccc(S[C@]2(C(=O)NCC(F)(F)F)CC(=O)N(C(C)C)[C@@H]2c2ccc(CO)cc2I)cc1 .
Output line: inactive
